Just for reference, patent US20090155236A1 is where these values come from.

Molecular target: delta PKC (Rattus norvegicus)
Sequence (P09215 with tags, fused parts or gaps with the stated changes limits assumed): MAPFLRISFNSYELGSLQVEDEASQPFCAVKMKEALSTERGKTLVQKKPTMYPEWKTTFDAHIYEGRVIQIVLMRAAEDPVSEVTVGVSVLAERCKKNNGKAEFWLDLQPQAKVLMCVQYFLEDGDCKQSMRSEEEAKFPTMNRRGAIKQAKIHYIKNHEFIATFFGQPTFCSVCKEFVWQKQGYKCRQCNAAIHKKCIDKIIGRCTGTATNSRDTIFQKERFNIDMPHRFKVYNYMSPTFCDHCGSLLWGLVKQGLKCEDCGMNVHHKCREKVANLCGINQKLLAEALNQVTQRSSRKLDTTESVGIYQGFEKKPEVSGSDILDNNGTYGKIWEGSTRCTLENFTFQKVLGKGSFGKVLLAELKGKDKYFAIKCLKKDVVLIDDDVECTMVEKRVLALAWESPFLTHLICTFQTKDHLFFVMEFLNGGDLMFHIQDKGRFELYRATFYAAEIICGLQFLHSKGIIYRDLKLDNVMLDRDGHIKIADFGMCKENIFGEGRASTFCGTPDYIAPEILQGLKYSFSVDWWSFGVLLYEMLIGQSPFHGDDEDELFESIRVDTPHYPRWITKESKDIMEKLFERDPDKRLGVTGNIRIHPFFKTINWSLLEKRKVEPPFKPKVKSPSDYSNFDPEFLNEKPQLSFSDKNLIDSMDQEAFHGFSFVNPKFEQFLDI
Assay: ELISA of annexin V peptide variants fused to alkaline phosphatase on immobilized delta PKC
Format: binding
Parameters: key: +++: Relative binding is shown in Table 1 by “+” and “−” indicators; ++: Relative binding is shown in Table 1 by “+” and “−” indicators; Relative binding is shown in Table 1 by “+” and “−” indicators; Relative binding is shown in Table 1 by “+” and “−” indicators; −−−: Relative binding is shown in Table 1 by “+” and “−” indicators
Details: relative binding of peptide-alkaline phosphatase fusion to immobilized delta PKC, Table 1
Protocol: Binding of the annexin V peptide (SEQ ID NO: 1) and of variants of the peptide to delta PKC was examined using an ELISA protocol, detailed in Example 6. […] Without washing the wells, 100 μL of a peptide fused to alkaline phosphatase protein (i.e., peptide-alkaline phosphatase fusion) was added to the wells, and incubated for 30 minutes at 37° C. […] The wells were allowed to develop overnight before reading absorbance at 405 nm.
Measured quantity: Binding

1) MRAAEDP (variant of SEQ ID NO1) [SEQ ID NO:18] | ++
2) MRAAENP (variant of SEQ ID NO1) [SEQ ID NO:13] | +++
3) MRAAADP (variant of SEQ ID NO1) [SEQ ID NO:16] | −−−
4) MQAARDP (variant of SEQ ID NO1) [SEQ ID NO:12] | +++
5) MEAAEDP (variant of SEQ ID NO1) [SEQ ID NO:15] | +
6) MRAAQDP (variant of SEQ ID NO1) [SEQ ID NO:14] | ++
7) MAAAEDP (variant of SEQ ID NO1) [SEQ ID NO:17] | −
